Target: NUDT7 (Homo sapiens)
Construct: residues 14-235, E. coli, pNIC28-Bsa4, N-terminal His6 tag removed by TEV, construct 26672 Da
Sequence (P0C024 14-235): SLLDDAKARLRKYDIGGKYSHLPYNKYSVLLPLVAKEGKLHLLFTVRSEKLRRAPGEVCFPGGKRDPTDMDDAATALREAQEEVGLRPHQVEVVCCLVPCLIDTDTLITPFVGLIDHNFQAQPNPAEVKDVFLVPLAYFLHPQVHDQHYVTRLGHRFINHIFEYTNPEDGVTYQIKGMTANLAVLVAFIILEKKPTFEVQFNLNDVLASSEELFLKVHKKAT
Design: Intact protein LC/MS covalent labelling, fragments in pools of five, 200 uM each, 4 °C
Conditions: 24 h, 4 °C, pool of five; 200 µM; covalent
reported.property: NUDT7
Could you respond with only the numeric value?

For NUDT7 (Homo sapiens), provide NUDT7 of CC1CCN(c2ccc(NC(=O)CCl)cc2)CC1.Cl [PCM-0102235] please.
0

For NUDT7 (Homo sapiens), provide NUDT7 of Cc1ccc(NC(=O)CCl)cc1Cl [PCM-0102208] please.
0.19

For NUDT7 (Homo sapiens), provide NUDT7 of COC(=O)C1CCN(C(=O)CCl)CC1 [PCM-0102978] please.
0

For NUDT7 (Homo sapiens), provide NUDT7 of C=CC(=O)NC1CCCN(c2cc(C)nn2C)C1=O (stereo not drawn) [PCM-0102991] please.
0

For NUDT7 (Homo sapiens), provide NUDT7 of CC(=O)c1sc2nc(C)cc(C)c2c1NC(=O)CCl [PCM-0102108] please.
0

For NUDT7 (Homo sapiens), provide NUDT7 of CC(C)N(C(=O)CCl)C(C)C [PCM-0103023] please.
0

For NUDT7 (Homo sapiens), provide NUDT7 of CC(NC(=O)CCl)C(=O)N(C)C (stereo not drawn) [PCM-0102754] please.
0

For NUDT7 (Homo sapiens), provide NUDT7 of O=C1CN(C(=O)CCl)c2ccc(C(F)(F)F)cc2N1 [PCM-0102289] please.
0

For NUDT7 (Homo sapiens), provide NUDT7 of CC(NC(=O)CCl)c1ccccc1Br (stereo not drawn) [PCM-0102256] please.
0.19

----------
Assay: in vitro
Parameters: species or system HB2, HEK293
Settings: human, ccd841 cells
reported.property: viability at 48 h, 10 µM
The answer consists of two parts: a number and, after it, its unit.

Need viability at 48 h, 10 µM of `NC(=O)c1c(NC(=O)CCl)sc2c1CCCC2` , thanks.
73.1%

Need viability at 48 h, 10 µM of `C=CC(=O)N1CCC(Oc2cnc3ccccc3n2)CC1` , thanks.
102%

Need viability at 48 h, 10 µM of `C=CC(=O)Nc1nc(-c2ccccc2C)cs1` , thanks.
106%

Need viability at 48 h, 10 µM of `N#Cc1ccccc1S(=O)(=O)N1CCN(C(=O)CCl)CC1` , thanks.
62.6%

Need viability at 48 h, 10 µM of `Cc1ccc(NC(=O)CCl)cc1` , thanks.
63.2%

Need viability at 48 h, 10 µM of C=CC(=O)NC(C#N)C(C)C (stereo not drawn) , thanks.
98.9%

----------
Test: in vitro
Design: species or system HB2, HEK293
Conditions: human, ccd841 cells
Output Fulfilled for records whose viability at 48 h, 10 µM is lower than 80%, Not fulfilled for records at or above 80%.

viability at 48 h, 10 µM under 80%? Item: `O=C(CCl)Nc1cccc2c1N=S=N2`
Fulfilled

viability at 48 h, 10 µM under 80%? Item: `CS(=O)(=O)c1cccc(NC(=O)CCl)c1`
Fulfilled

viability at 48 h, 10 µM under 80%? Item: C=CC(=O)N1CC2(CCCC2)c2cc3c(cc2C1C)OCCO3 (stereo not drawn)
Not fulfilled

viability at 48 h, 10 µM under 80%? Item: `CN(C)C(=O)c1cccc(NC(=O)CCl)c1`
Fulfilled

viability at 48 h, 10 µM under 80%? Item: `C=CC(=O)NC1(c2nc(C)cs2)CCOCC1`
Not fulfilled

----------
So I've got a bunch of compounds here, and I need their viability at 48 h, 10 µM values.
Assay: in vitro
Set-up: species or system HB2, CCD841
Settings: human, hek293 cells
Give just the numeric value; % need not be written.

Need viability at 48 h, 10 µM of Cl.O=C(CCl)N1CCN(Cc2ccccc2)CC1 [PCM-0103063] , thanks.
60.1

Need viability at 48 h, 10 µM of CC(NC(=O)CCl)c1ccco1 (centres unmarked) [PCM-0102798] , thanks.
88.4

Need viability at 48 h, 10 µM of CN(C(=O)CCl)C1(c2ccccc2Cl)CCCCC1=O (centres unmarked) [PCM-0102359] , thanks.
87.5

Need viability at 48 h, 10 µM of CC(C)c1nnc(NC(=O)CCl)s1 [PCM-0102928] , thanks.
81.8

Need viability at 48 h, 10 µM of Cl.O=C(CCl)N1CCN(CC(=O)N2CCOCC2)CC1 [PCM-0102133] , thanks.
92.7

Need viability at 48 h, 10 µM of C=CC(=O)Nc1cc(F)ccc1C [PCM-0102917] , thanks.
76.3

Need viability at 48 h, 10 µM of C=CC(=O)Nc1cccc(C(F)(F)F)c1 [PCM-0102573] , thanks.
108

Need viability at 48 h, 10 µM of C=CC(=O)Nc1cccc(C#N)c1 [PCM-0102956] , thanks.
74.5

Need viability at 48 h, 10 µM of O=C(CCl)N1CCc2ccccc21 [PCM-0102160] , thanks.
16.3

Need viability at 48 h, 10 µM of CC1(C)CCCN1C(=O)CCl [PCM-0103060] , thanks.
74.5

Need viability at 48 h, 10 µM of C=CC(=O)N1CCCC(Oc2ncccc2F)C1 (centres unmarked) [PCM-0102725] , thanks.
80.3

Need viability at 48 h, 10 µM of CN(CCC#N)C(=O)CCl [PCM-0102712] , thanks.
80.3

Need viability at 48 h, 10 µM of O=C(CCl)Nc1nccs1 [PCM-0102242] , thanks.
70.1

Need viability at 48 h, 10 µM of O=C(CCl)NNC(=O)c1ccco1 [PCM-0102985] , thanks.
100

Need viability at 48 h, 10 µM of O=C(CCl)N1CCC(C(=O)N2CCCCCC2)CC1 [PCM-0102781] , thanks.
63.8

Need viability at 48 h, 10 µM of O=C(CCl)Nc1cccc2ncccc12 [PCM-0102097] , thanks.
27.9

Need viability at 48 h, 10 µM of Cl.O=C(CCl)N1CCN(Cc2cccc3ccccc23)CC1 [PCM-0102287] , thanks.
19.9

Need viability at 48 h, 10 µM of O=C(CCl)N1CCc2[nH]c3ccccc3c2C1 [PCM-0102591] , thanks.
7.5

Need viability at 48 h, 10 µM of C=CC(=O)N1CC2(CCCC2)c2cc3c(cc2C1C)OCCO3 (centres unmarked) [PCM-0102560] , thanks.
116

Need viability at 48 h, 10 µM of C=CC(=O)NCC1C2Cc3ccccc3C12 (centres unmarked) [PCM-0102769] , thanks.
79.1

Need viability at 48 h, 10 µM of O=C(CCl)NC1c2ccccc2-c2ccccc21 [PCM-0102802] , thanks.
58.9

Need viability at 48 h, 10 µM of O=C1CN(C(=O)CCl)CCN1 [PCM-0103008] , thanks.
86.5

Need viability at 48 h, 10 µM of Cl.O=C(CCl)N1CCN(Cc2ccc(Cl)s2)CC1 [PCM-0102277] , thanks.
18.2

Need viability at 48 h, 10 µM of O=C(CCl)NNC(=O)c1ccccc1Cl [PCM-0102954] , thanks.
91.3

Need viability at 48 h, 10 µM of O=C(CCl)Nc1cc2c(cc1Cl)OCO2 [PCM-0102209] , thanks.
47.1

Need viability at 48 h, 10 µM of C=CC(=O)NC1CCN(c2ccc(C(F)(F)F)cn2)CC1 [PCM-0102602] , thanks.
62.4

Need viability at 48 h, 10 µM of O=C(CCl)Nc1ccccc1Cl [PCM-0102152] , thanks.
76.1

Need viability at 48 h, 10 µM of CCN(C(=O)CCl)C1=CCCCC1 [PCM-0103084] , thanks.
120

Need viability at 48 h, 10 µM of COC(=O)c1cccc(NC(=O)CCl)c1O [PCM-0102851] , thanks.
108

Need viability at 48 h, 10 µM of O=C(CCl)NC1CCN(C(=O)C2CCCCC2)CC1 [PCM-0102931] , thanks.
118

Need viability at 48 h, 10 µM of CN(Cc1cccs1)C(=O)CCl [PCM-0102636] , thanks.
7

Need viability at 48 h, 10 µM of CC(C)(C)n1ncc2c1CCCC2NC(=O)CCl.Cl (centres unmarked) [PCM-0103046] , thanks.
89.3

Need viability at 48 h, 10 µM of Cc1ccc(N(C(=O)CCl)C2C=CS(=O)(=O)C2)cc1 (centres unmarked) [PCM-0102539] , thanks.
4.7

Need viability at 48 h, 10 µM of NC(=O)c1c(NC(=O)CCl)sc2c1CCCC2 [PCM-0102620] , thanks.
29.6

Need viability at 48 h, 10 µM of Cc1ccc2nc(NC(=O)CCl)sc2c1 [PCM-0103031] , thanks.
79.2

Need viability at 48 h, 10 µM of C=CC(=O)N1CCCC(Cn2ccnn2)C1 (centres unmarked) [PCM-0102647] , thanks.
102

Need viability at 48 h, 10 µM of Cc1ccc(CNC(=O)CCl)cc1F [PCM-0102959] , thanks.
62.6

Need viability at 48 h, 10 µM of O=C(CCl)Nc1cc(Cl)ccc1C(=O)O [PCM-0102412] , thanks.
89.4

Need viability at 48 h, 10 µM of CN(Cc1nc2ccccc2s1)C(=O)CCl [PCM-0102988] , thanks.
2.9

Need viability at 48 h, 10 µM of CC(=O)N1CCC(NC(=O)CCl)CC1 [PCM-0102932] , thanks.
88

Need viability at 48 h, 10 µM of O=C(CCl)NC(=O)c1ccccc1Br [PCM-0102464] , thanks.
107
